Target: JAK2 tyrosine kinase (Homo sapiens)
Construct: purchased Carnabioscience Co
Sequence (O60674 whole entry): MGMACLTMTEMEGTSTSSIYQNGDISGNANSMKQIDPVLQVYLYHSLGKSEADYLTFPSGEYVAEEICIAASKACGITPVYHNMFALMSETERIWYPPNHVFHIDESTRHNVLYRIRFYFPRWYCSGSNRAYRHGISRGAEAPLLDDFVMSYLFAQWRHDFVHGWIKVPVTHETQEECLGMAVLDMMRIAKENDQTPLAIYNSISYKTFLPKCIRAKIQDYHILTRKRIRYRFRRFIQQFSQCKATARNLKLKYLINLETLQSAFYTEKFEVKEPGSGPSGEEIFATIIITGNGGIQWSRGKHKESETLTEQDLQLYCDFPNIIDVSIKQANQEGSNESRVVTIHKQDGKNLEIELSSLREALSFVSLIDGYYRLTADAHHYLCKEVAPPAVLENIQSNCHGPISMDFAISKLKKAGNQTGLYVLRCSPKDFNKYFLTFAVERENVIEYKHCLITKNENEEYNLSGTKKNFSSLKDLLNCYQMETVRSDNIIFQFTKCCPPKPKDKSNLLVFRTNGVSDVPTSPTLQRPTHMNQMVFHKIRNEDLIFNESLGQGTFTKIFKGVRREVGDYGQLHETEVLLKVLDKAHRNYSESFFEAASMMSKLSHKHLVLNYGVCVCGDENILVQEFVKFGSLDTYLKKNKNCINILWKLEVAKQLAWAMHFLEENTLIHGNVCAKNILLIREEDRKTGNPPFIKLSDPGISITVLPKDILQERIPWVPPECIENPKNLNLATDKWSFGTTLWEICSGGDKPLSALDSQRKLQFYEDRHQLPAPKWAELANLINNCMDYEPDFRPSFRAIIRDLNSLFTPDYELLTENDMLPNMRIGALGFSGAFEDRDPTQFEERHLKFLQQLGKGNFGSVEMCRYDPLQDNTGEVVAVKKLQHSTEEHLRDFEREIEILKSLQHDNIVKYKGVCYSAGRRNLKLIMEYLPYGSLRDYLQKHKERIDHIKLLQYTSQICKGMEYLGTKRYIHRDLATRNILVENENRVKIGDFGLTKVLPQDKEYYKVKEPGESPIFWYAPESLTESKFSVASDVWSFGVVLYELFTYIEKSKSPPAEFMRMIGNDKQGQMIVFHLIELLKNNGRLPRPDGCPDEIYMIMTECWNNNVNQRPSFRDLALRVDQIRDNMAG
Assay: Test 1: inhibitory activity to JAK2 tyrosine kinase (ELISA)
Format: biochemical
Conditions: 25 μM ATP in substrate solution, 30° C. for 1 hour, n=2
Structures can show the parent of a compound that is named as a salt.
measurement-kind: IC50 (nM)
Supply the numeric figure in nM, leaving out any unit text.

Cc1cn(-c2cc(Nc3cnccn3)nc(N[C@@H](C)c3ccc(F)cc3)n2)cn1 [Example 118, hydrochloride]    1.6
C[C@H](Nc1nc(Nc2cnccn2)cc(N(CCO)CCO)n1)c1ccc(F)cc1 [Example 61, hydrochloride]    6
C[C@H](Nc1nc(Nc2cnccn2)cc(N2CCC(C(=O)NS(C)(=O)=O)CC2)n1)c1ccc(F)cc1    0.4

query: Give the measured IC50 of C[C@H](Nc1nc(Nc2cnccn2)cc(-c2ccc3c(c2)OCO3)n1)c1ccc(F)cc1 [Example 92, hydrochloride] .
result: 9.8

query: May I ask what IC50 has been recorded for C[C@H](Nc1nc(Nc2cnccn2)cc(N2CCC(O)(CO)CC2)n1)c1ccc(F)cc1 ?
result: 0.55

query: For C[C@H](Nc1cc(-c2cc[nH]c2)cc(Nc2cnccn2)n1)c1ccc(F)cc1 [Example 116, dihydrochloride] , what is its reported IC50?
result: 5.3
